target: V-ATPase holoenzyme from the midgut of the tobacco hornworm (Manduca sexta); construct: purified V-ATPase holoenzyme from the midgut of the tobacco hornworm; from tissue; host or cells: midgut of fifth instar Manduca sexta larvae; assay: Inhibition of purified V-ATPase holoenzyme activity; type: biochemical; settings: equivalent of the half-maximal concentration
Sequence (P31403 whole entry): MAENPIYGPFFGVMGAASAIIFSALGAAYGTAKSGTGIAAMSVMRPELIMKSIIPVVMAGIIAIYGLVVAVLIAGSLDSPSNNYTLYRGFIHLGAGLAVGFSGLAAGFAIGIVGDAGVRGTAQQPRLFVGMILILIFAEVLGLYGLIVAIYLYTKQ
measured-metric: IC50 per mg of protein, purified V-ATPase

[in] Look up IC50 per mg of protein, purified V-ATPase: CC/C=C\C=C/C(=O)N/C=C/CC1CC2CC(O[C@@H]3O[C@H](CO)[C@@H](O)[C@H](O)[C@H]3NC(C)=O)CC(Cc3cccc(O)c3C(=O)O1)O2 (stereo partly shown)
[out] ~2.4 nmol per mg of protein

----------
Recorded measurements of pIC50, one per entry
target: V-ATPase holoenzyme from the midgut of the tobacco hornworm (Manduca sexta); construct: purified V-ATPase holoenzyme from the midgut of the tobacco hornworm; from tissue; host or cells: midgut of fifth instar Manduca sexta larvae; experiment: Inhibition of purified V-ATPase holoenzyme activity; type: biochemical; details: purified holoenzyme, 3–4 μg protein, pH 8.1, 30°C; read-out: half-maximal inhibition concentration of purified V-ATPase
pIC50: −log10 of the molar value.

* CC/C=C\C=C/C(=O)N/C=C/C[C@H]1C[C@H]2C[C@H](O)C[C@H](Cc3cccc(O)c3C(=O)O1)O2 | ~7.70

// next item, pIC50 requested
[in] What value of pIC50 on V-ATPase holoenzyme from the midgut of the tobacco hornworm (Manduca sexta) does CC/C=C\C=C/C(=O)N/C=C/CC1CC2CC(O[C@@H]3O[C@H](CO)[C@@H](O)[C@H](O)[C@H]3NC(C)=O)CC(Cc3cccc(O)c3C(=O)O1)O2 (some centres unmarked) have?
[out] ~7.22

----------
system: M1; assay: Growth inhibition of M1 cells (MTT assay); format: cell-based, mouse; settings: 120 h; M1, mouse embryogenic fibroblast cell line; MTT after 5 days; read-out: IC50 growth inhibition
measured-metric: IC50 (nM)
Number only, in nM; omit the unit.

• C/C=C/[C@H]1O[C@@](O)([C@@H](C)[C@H](O)[C@H](C)[C@H]2OC(=O)/C(OC)=C/C(C)=C/[C@@H](C)[C@@H](O)[C@@H](CC)[C@@H](O)[C@H](C)C/C(C)=C/C=C/[C@@H]2OC)C[C@@H](O[C@H]2C[C@@H](O)[C@H](OC(N)=O)[C@@H](C)O2)[C@@H]1C [concanamycin A, reference compound] = 0.56

[in] Look up IC50: CO/C1=C\C(C)=C\[C@@H](C)[C@@H](O)[C@@H](C)C/C(C)=C/C=C/[C@H](OC)[C@@H]([C@@H](C)[C@@H](O)[C@H](C)[C@@]2(O)C[C@@H](O)[C@H](C)[C@@H](C(C)C)O2)OC1=O [bafilomycin A1, reference compound]
[out] 2.6

[in] Another: CC/C=C\C=C/C(=O)N/C=C/C[C@H]1C[C@H]2C[C@H](O)C[C@H](Cc3cccc(O)c3C(=O)O1)O2
[out] 1.4

[in] Another: CC/C=C\C=C/C(=O)N/C=C/CC1CC2CC(O[C@@H]3O[C@H](CO)[C@@H](O)[C@H](O)[C@H]3NC(C)=O)CC(Cc3cccc(O)c3C(=O)O1)O2 (stereo partly shown)
[out] 190
